# test: AUC (0 to t) in SCID mouse at 5 mg/kg, iv by LC/MS method
# Type: ADME, organism-based
# measurement-parameters: in vivo
observed-property: AUC(0-t) (ng·h/mL)
Only the number, expressed in ng·h/mL, is required.

Query: Could you share which AUC(0-t) value was measured for "COc1cc2c(cc1-c1c(C)noc1C)[nH]c1nc(C)nc(-c3ccnc4ccccc34)c12" ?
Result: 3690

###

# assayed-system: SWI/SNF-related matrix-associated actin-dependent regulator of chromatin subfamily A member 2 (Homo sapiens, UniProt P51531)
# Sequence (P51531 whole entry, the tested form may be a part): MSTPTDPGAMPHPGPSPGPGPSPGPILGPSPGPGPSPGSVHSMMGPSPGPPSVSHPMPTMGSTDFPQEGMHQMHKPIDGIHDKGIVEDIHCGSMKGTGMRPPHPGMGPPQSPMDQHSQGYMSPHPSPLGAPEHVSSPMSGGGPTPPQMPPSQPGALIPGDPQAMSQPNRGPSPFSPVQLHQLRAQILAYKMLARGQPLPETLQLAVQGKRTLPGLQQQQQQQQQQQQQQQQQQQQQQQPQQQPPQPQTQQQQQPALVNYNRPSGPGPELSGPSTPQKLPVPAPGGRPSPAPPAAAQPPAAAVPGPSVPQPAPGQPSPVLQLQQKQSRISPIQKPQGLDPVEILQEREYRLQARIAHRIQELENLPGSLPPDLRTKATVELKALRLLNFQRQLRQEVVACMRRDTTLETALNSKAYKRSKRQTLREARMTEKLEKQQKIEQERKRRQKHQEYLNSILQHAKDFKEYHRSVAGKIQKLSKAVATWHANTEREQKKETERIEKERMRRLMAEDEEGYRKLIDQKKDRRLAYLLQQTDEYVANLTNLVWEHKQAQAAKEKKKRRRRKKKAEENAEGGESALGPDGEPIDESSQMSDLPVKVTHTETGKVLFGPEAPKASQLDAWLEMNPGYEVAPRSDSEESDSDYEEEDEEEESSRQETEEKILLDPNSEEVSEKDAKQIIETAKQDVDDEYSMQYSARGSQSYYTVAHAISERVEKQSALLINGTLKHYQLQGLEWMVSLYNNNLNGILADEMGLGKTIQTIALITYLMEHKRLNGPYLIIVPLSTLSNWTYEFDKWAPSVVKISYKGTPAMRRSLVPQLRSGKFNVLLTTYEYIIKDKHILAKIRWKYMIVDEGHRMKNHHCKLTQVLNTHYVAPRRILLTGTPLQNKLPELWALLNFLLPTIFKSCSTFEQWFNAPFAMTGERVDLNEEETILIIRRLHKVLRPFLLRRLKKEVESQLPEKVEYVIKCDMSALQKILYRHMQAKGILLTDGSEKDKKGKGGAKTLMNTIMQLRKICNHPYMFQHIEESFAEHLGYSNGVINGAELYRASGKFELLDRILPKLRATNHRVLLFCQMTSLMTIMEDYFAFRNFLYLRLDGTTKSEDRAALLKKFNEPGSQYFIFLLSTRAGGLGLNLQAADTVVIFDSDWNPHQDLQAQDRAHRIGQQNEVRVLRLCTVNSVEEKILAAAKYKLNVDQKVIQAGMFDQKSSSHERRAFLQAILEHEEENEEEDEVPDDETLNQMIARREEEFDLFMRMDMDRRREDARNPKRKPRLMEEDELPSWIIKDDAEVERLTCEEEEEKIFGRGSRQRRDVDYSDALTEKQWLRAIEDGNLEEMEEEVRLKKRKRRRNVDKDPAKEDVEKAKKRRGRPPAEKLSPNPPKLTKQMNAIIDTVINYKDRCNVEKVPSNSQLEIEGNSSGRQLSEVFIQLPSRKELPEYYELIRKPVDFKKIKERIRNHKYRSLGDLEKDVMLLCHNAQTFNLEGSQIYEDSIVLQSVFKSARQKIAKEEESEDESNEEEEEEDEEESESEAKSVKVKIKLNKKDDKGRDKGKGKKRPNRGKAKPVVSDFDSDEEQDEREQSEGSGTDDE
# test: Binding affinity to human partial length SMARCA2 (S1377 to Q1486 residues) expressed in bacterial expression system by BROMOscan assay
pKd: −log10 of the molar value.
observed-property: pKd

Query: Could you share which pKd value was measured for "COc1cc2c(cc1-c1c(C)noc1C)[nH]c1nc(C)nc(-c3ccnc4ccccc34)c12" ?
Result: < 5.40

###

# test: Drug level in SCID mouse at 25 mg/kg, po after 6 hrs by LC-MS/MS analysis
# Type: ADME, organism-based
# measurement-parameters: in vivo, read-out: Drug uptake
observed-property: concentration at 6 h (ng/mL)
Only the number, expressed in ng/mL, is required.

Query: Could you share which concentration at 6 h value was measured for "COc1cc2c(cc1-c1c(C)noc1C)[nH]c1ncnc(-c3c(C4CC4)n[nH]c3C)c12" ?
Result: 72

###

# assayed-system: Histone acetyltransferase KAT2A (Homo sapiens, UniProt Q92830)
# Sequence (Q92830 whole entry, the tested form may be a part): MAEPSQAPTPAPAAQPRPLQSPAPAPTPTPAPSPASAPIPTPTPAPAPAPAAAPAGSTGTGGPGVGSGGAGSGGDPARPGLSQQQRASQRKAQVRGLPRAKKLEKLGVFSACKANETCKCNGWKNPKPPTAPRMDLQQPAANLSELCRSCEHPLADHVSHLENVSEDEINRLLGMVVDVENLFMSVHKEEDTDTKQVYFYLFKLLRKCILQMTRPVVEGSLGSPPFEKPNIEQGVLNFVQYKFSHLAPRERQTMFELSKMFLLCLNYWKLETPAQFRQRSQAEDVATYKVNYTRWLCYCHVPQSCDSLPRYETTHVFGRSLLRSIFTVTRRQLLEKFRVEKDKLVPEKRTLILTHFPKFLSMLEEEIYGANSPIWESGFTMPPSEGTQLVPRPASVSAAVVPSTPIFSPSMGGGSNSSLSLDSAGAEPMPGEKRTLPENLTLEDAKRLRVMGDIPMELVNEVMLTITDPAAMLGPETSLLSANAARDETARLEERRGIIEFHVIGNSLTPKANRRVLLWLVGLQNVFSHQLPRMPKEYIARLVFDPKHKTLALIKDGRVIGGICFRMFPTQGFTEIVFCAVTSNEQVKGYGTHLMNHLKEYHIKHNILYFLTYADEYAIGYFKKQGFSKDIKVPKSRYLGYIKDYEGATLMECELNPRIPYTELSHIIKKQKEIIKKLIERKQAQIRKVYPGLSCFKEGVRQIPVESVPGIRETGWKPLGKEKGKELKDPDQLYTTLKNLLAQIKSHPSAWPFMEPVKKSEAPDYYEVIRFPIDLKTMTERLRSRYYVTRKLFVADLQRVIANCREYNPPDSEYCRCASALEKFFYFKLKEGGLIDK
# test: Binding affinity to human partial length GCN5L2 (E726 to K837 residues) expressed in bacterial expression system by BROMOscan assay
pKd: −log10 of the molar value.
observed-property: pKd

Query: Could you share which pKd value was measured for "COc1cc2c(cc1-c1c(C)noc1C)[nH]c1nc(C)nc(-c3ccnc4ccccc34)c12" ?
Result: < 5.40

###

# assayed-system: Bromodomain-containing protein 4 (Homo sapiens)
# test: Inhibition of FAM-labeled ZBA248 binding to recombinant human N-terminal His6-tagged BRD4 bromodomain 2 (333 to 460 residues) expressed in Rosetta2 DE3 cells after 30 mins by Flourescence polarization assay
# Type: biochemical
Label key: condition met means Ki under 60 nM; condition not met means Ki of 60 nM or more.

Query: State whether 60 nM exceeds Ki recorded for "COc1cc2c(cc1-c1c(C)noc1C)[nH]c1ncnc(-c3cnn4ccccc34)c12" .
Result: condition met

Query: State whether 60 nM exceeds Ki recorded for "COc1cc2c(cc1-c1c(C)noc1C)[nH]c1nc(C)nc(-c3cccc4cnccc34)c12" .
Result: condition not met

Query: State whether 60 nM exceeds Ki recorded for "COc1cc2c(cc1-c1c(C)noc1C)[nH]c1nc(C)nc(-c3cccc4ccncc34)c12" .
Result: condition met

Query: State whether 60 nM exceeds Ki recorded for "COc1cc2c(cc1-c1c(C)noc1C)[nH]c1ncnc(-c3cnoc3)c12" .
Result: condition not met

Query: State whether 60 nM exceeds Ki recorded for "COc1cc2c(cc1-c1c(C)noc1C)[nH]c1ncnc(-c3c(C)noc3C)c12" .
Result: condition not met

Query: State whether 60 nM exceeds Ki recorded for "COc1cc2c(cc1-c1c(C)noc1C)[nH]c1ncnc(-c3c(C)[nH]c4cnccc34)c12" .
Result: condition met

Query: State whether 60 nM exceeds Ki recorded for "COc1cc2c(cc1-c1c(C)noc1C)[nH]c1ncnc(-c3cc[nH]c3)c12" .
Result: condition met

Query: State whether 60 nM exceeds Ki recorded for "COc1cc2c(cc1-c1c(C)noc1C)[nH]c1nc(C)nc(-c3cncc4ccccc34)c12" .
Result: condition met

Query: State whether 60 nM exceeds Ki recorded for "COc1cc2c(cc1-c1c(C)noc1C)[nH]c1ncnc(-c3c[nH]c4ccccc34)c12" .
Result: condition met

Query: State whether 60 nM exceeds Ki recorded for "COc1cc2c(cc1-c1c(C)noc1C)[nH]c1ncnc(-c3c(C)nn(C)c3C)c12" .
Result: condition met

Query: State whether 60 nM exceeds Ki recorded for "COc1cc2c(cc1-c1c(C)noc1C)[nH]c1ncnc(-c3ccoc3)c12" .
Result: condition met

Query: State whether 60 nM exceeds Ki recorded for "COc1cc2c(cc1-c1c(C)noc1C)[nH]c1nc(C)nc(-c3c(C)[nH]c4ccccc34)c12" .
Result: condition met

Query: State whether 60 nM exceeds Ki recorded for "COc1cc2c(cc1-c1c(C)noc1C)[nH]c1nc(C)nc(-c3cc(C(F)(F)F)nc4ccccc34)c12" .
Result: condition met

Query: State whether 60 nM exceeds Ki recorded for "COc1cc2c(cc1-c1c(C)noc1C)[nH]c1ncnc(-c3c(C)oc4ccccc34)c12" .
Result: condition met

Query: State whether 60 nM exceeds Ki recorded for "COc1cc(-c2nc(C)nc3[nH]c4cc(-c5c(C)noc5C)c(OC)cc4c23)c2ccccc2n1" .
Result: condition met

Query: State whether 60 nM exceeds Ki recorded for "COc1cc2c(cc1-c1c(C)noc1C)[nH]c1ncnc(-c3c(C)[nH]c4ccccc34)c12" .
Result: condition met

Query: State whether 60 nM exceeds Ki recorded for "COc1cc2c(cc1-c1c(C)noc1C)[nH]c1ncnc(-c3cn[nH]c3)c12" .
Result: condition met
